Target: human GPR40 (Homo sapiens)
Construct: expressed in transfected cells
Sequence (O14842 whole entry): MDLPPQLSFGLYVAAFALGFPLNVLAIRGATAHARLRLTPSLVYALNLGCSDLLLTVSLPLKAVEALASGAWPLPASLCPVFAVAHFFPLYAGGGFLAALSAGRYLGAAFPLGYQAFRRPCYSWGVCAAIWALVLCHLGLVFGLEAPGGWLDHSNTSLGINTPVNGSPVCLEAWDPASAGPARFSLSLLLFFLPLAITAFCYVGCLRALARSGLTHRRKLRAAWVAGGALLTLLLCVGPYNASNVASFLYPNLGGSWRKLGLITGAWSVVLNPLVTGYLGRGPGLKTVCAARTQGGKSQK
Assay: Inositol Phosphate Turnover (IP1) Assay
Format: cell-based
Settings: HEK cells stably expressing human GPR40, 7500 cells per well, CisBio IP-One kit
pEC50: −log10 of the molar value.
Would you mind labelling by pEC50? At or over 8 is Satisfied, under is Not satisfied.

Ask: Can C[C@H](C(=O)O)[C@H](c1ccc2c(c1)OC(C13CCN([C@H](C)c4cc(F)ccc4OC(F)(F)F)C(C1)C3)CC2)C1CC1 (single isomer, unassigned) [Example 43] be said to have pEC50 at or above 8?
Result: Not satisfied

Ask: Can C[C@H](C(=O)O)[C@H](c1ccc2c(c1)OC(C1C3COCC1CN([C@H](C)c1cc(C(F)(F)F)ccc1C(F)(F)F)C3)CC2)C1CC1 (stereo partly drawn) [Example 3] be said to have pEC50 at or above 8?
Result: Not satisfied

Ask: Can CC(c1cc(F)ccc1OC(F)(F)F)N1CC2CC1CC2C1CCc2ccc([C@H](C3CC3)[C@H](C)C(=O)O)cc2O1 (single isomer, unassigned) be said to have pEC50 at or above 8?
Result: Not satisfied

Ask: Can C[C@H](C(=O)O)[C@H](c1ccc2c(c1)OC(C13CCN([C@H](C)c4cc(F)ccc4OC(F)(F)F)C(C1)C3)CC2)C1CC1 (single isomer, unassigned) [Example 44] be said to have pEC50 at or above 8?
Result: Satisfied

Ask: Can C[C@H](C(=O)O)[C@H](c1ccc2c(c1)OC(C1CC3CC1CN3[C@@H](C)c1cc(F)ccc1C(F)(F)F)CC2)C1CC1 (stereo partly drawn) [Example 19] be said to have pEC50 at or above 8?
Result: Satisfied

Measured values drawn from patent US11072602B2 for this set.
